Value source: ChEMBL document CHEMBL3272160

Species on record: Rattus norvegicus
Test: Vasopressor activity in rat
Format: ADME, organism-based
Conditions: in vivo
*1 amine or outer side, *2 acyl side, *3 side chain or, on linkers, in order; H or OH if unused. Where a SMILES comes first, the peptide text is derived from it. Bridges are numbered along the chain shown (N, C = ends). [ ]: non-standard residue; d: D form. Abu(4-yl) = O=C([C@H](CC[*:3])N[*:1])[*:2]; X1 = O=C([C@@H](O)CS[*:2])[*:1]
Measured Endpoint: Activity (U/mg)
Give bare numbers, in U/mg.

CC[C@H](C)[C@@H]1NC(=O)[C@H](Cc2ccc(O)cc2)NC(=O)[C@@H](O)CSSC[C@@H](C(=O)N2CCC[C@H]2C(=O)N[C@@H](CC(C)C)C(=O)NCC(N)=O)NC(=O)[C@H](CC(N)=O)NC(=O)[C@H](CCC(N)=O)NC1=O (YIQNCPLG-NH2; linker N-5 via X1): 14.7

Incoming: Request the reported Activity associated with CC[C@H](C)[C@@H]1NC(=O)[C@H](Cc2ccc(O)cc2)NC(=O)[C@@H](N)CCSC[C@@H](C(=O)N2CCC[C@H]2C(=O)N[C@@H](CC(C)C)C(=O)NCC(N)=O)NC(=O)[C@H](CC(N)=O)NC(=O)[C@H](CCC(N)=O)NC1=O (H-[Abu(4-yl)]YIQNCPLG-NH2; thioether 1-6)
Outgoing: 2.95

---

For each of the compounds below, state its Activity.
Organism: Rattus norvegicus
Test: Antidiuretic activity in rat
Assay type: ADME, organism-based, Urine
Details: in vivo
*1 amine or outer side, *2 acyl side, *3 side chain or, on linkers, in order; H or OH if unused. Where a SMILES comes first, the peptide text is derived from it. Bridges are numbered along the chain shown (N, C = ends). [ ]: non-standard residue; d: D form. Abu(4-yl) = O=C([C@H](CC[*:3])N[*:1])[*:2]; X2 = O=C(CCC[*:2])[*:1]; Mpa = O=C(O)CCS

Worked cases, answers included:
CC[C@H](C)[C@@H]1NC(=O)[C@H](Cc2ccc(O)cc2)NC(=O)CCCSC[C@@H](C(=O)N2CCC[C@H]2C(=O)N[C@@H](CC(C)C)C(=O)NCC(N)=O)NC(=O)[C@H](CC(N)=O)NC(=O)[C@H](CCC(N)=O)NC1=O (YIQNCPLG-NH2; linker N-5 via X2): 24.1 U/mg
CC[C@H](C)[C@@H]1NC(=O)[C@H](Cc2ccc(O)cc2)NC(=O)CCSSC[C@@H](C(=O)N2CCC[C@H]2C(=O)N[C@@H](CC(C)C)C(=O)NCC(N)=O)NC(=O)[C@H](CC(N)=O)NC(=O)[C@H]([C@@H](C)O)NC1=O ([Mpa]YITNCPLG-NH2; disulfide 1-6): 0.9 U/mg
CC[C@H](C)[C@@H]1NC(=O)[C@H](Cc2ccc(O)cc2)NC(=O)[C@@H](N)CSSC[C@@H](C(=O)N2CCC[C@H]2C(=O)N[C@@H](CC(C)C)C(=O)NCC(N)=O)NC(=O)[C@H](CC(N)=O)NC(=O)[C@H](CCC(N)=O)NC1=O: 4 U/mg

Alright, here's another compound for you.
Incoming: Which Activity value belongs to CC[C@H](C)[C@@H]1NC(=O)[C@H](Cc2ccc(O)cc2)NC(=O)[C@@H](N)CCSC[C@@H](C(=O)N2CCC[C@H]2C(=O)N[C@@H](CC(C)C)C(=O)NCC(N)=O)NC(=O)[C@H](CC(N)=O)NC(=O)[C@H](CCC(N)=O)NC1=O (H-[Abu(4-yl)]YIQNCPLG-NH2; thioether 1-6) ?
Outgoing: 9.3 U/mg
